- assay.system: RSV (Long strain) F protein on infectious virus (respiratory syncytial virus (Long strain)) (UniProt P12568)
- Sequence (P12568 26-574): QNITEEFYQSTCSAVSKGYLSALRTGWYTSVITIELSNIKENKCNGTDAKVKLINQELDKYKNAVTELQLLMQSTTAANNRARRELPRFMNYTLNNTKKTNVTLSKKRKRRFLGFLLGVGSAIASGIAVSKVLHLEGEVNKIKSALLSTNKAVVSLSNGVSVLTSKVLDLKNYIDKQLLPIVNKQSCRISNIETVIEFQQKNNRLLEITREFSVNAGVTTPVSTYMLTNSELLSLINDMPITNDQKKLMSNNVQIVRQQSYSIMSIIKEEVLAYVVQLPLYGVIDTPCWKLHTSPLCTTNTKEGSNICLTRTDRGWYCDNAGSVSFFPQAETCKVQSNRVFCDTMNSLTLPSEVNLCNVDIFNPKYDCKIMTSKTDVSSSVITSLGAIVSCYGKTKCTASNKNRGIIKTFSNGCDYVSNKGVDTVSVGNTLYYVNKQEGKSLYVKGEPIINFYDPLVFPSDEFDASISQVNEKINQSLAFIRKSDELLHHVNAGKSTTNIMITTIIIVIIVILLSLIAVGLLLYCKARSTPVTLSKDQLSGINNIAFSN
- protocol.details: cell-based or functional assay
readout.kind: Fold Difference (Curve IC50), against palivizumab
Quick note: unit goes after the number.

Would you kindly share the measured Fold Difference (Curve IC50), against palivizumab for A4B4 monoclonal antibody (antibody, V domains shown) VH: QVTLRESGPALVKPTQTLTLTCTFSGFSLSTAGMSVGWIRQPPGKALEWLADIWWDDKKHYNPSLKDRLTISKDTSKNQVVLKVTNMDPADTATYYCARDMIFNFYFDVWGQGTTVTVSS VL: DIQMTQSPSTLSASVGDRVTITCSASSRVGYMHWYQQKPGKAPKLLIYDTFFLDSGVPSRFSGSGSGTEFTLTISSLQPDDFATYYCFQGSGYPFTFGGGTKVEIK ?
27 fold

Please look up its Fold Difference (Curve IC50), against palivizumab: A13a11 Fab fragment (Fab, V domains shown) VH: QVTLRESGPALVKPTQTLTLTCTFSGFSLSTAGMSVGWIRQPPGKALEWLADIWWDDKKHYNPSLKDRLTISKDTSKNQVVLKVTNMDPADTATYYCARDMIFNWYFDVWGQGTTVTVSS VL: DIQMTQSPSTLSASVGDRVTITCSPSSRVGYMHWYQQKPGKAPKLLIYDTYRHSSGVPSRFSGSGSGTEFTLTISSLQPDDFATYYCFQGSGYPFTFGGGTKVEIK
4 fold

Recorded Fold Difference (Curve IC50), against palivizumab for A17d4(1) monoclonal antibody (antibody, V domains shown) VH: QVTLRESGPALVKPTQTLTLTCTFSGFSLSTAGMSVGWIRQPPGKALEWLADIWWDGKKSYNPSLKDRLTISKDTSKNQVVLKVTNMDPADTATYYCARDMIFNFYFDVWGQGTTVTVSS VL: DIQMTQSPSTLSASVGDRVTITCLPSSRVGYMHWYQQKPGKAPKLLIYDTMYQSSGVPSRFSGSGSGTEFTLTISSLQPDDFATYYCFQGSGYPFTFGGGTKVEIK , please?
13 fold
